The measured values listed here are drawn from patent US4816486A.

Target: 5-lypoxygenase (Mus musculus, UniProt P48999)
Construct: The supernatant was used as the 5-lypoxygenase enzyme solution; endogenous in cells
Sequence (P48999 whole entry): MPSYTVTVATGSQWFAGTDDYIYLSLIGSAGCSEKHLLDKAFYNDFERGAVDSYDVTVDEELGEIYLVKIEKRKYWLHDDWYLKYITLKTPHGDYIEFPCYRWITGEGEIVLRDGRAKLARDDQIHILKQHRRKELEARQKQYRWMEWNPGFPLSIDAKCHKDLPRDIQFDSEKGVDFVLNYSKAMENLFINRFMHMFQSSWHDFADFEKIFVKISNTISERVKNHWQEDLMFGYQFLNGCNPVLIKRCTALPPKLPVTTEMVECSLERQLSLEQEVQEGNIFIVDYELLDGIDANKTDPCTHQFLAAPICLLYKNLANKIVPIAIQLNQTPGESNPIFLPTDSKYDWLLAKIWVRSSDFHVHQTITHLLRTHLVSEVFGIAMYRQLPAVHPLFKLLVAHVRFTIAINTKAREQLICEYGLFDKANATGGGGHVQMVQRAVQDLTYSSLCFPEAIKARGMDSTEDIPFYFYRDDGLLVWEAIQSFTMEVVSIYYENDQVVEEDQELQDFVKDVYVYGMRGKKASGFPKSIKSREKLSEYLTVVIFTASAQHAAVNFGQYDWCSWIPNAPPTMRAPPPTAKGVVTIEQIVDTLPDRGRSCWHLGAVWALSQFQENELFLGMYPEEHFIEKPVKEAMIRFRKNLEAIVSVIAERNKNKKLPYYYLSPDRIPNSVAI
Experiment: 5-Lypoxygenase-inhibiting activity (formation of 5-HETE and LTB4 from radiolabelled arachidonic acid, supernatant of sonicated mouse mastocytoma P815 cells)
Conditions: inhibition of formation of 5-HETE and LTB4; 37° C., 5 min; pH 7.4 phosphate buffer; P815 cell supernatant; indomethacine present; read-out: 50% inhibitory concentration IC50
pIC50: −log10 of the molar value.
property label: pIC50

(I) COc1cc(/C=C/C=C/C(=O)Nc2c(Br)cc(Br)cc2CN(C)C2CCCCC2)ccc1O
(II) COc1cc(/C=C/C(=O)Nc2c(Br)cc(Br)cc2CN(C)C2CCCCC2)ccc1O
Param metric = pIC50; output whichever of I , II has the minimum value. Let me know the label of the one you choose.
II
(II: 5.40, I: 6.52)
